# Test system: XeIF4E1a
# experiment-summary: time-synchronized fluorescence titration of cap analogue binding
# Design: species or system Xenopus laevis
# condition-description: without glycerol
# Method: The time-synchronized fluorescence titration method, widely used to determine the affinity constants of cap–eIF4E complexes [[20,22–26]], measures the quenching of the intrinsic fluorescence of tryptophan residues due to cap binding (Fig. S2). […] The final Kas was calculated as a weighted average of 2–6 independent titrations with the weights taken as the reciprocal of the numerical standard deviation squared. […]
quantity-kind: Ratio Kas (h4E1a) to Kas (X4E1a)
Number only, please.

Ask: Provide the reported Ratio Kas (h4E1a) to Kas (X4E1a) (system: XeIF4E1a) for CN(C)c1nc2c(c(=O)[nH]1)[n+](C)cn2[C@@H]1O[C@H](COP(=O)(O)OP(=O)(O)OP(=O)(O)O)[C@@H](O)[C@H]1O [m^2,2,7GTP]
Result: 1.22

Ask: Provide the reported Ratio Kas (h4E1a) to Kas (X4E1a) (system: XeIF4E1a) for CCn1c[n+]([C@@H]2O[C@H](COP(=O)(O)OP(=O)(O)OP(=O)(O)O)[C@@H](O)[C@H]2O)c2nc(N)[nH]c(=O)c21 [et^7GTP]
Result: 1.65

====

# target-desc: X4E1a2 (E101S/K102R) (Xenopus laevis, UniProt P48597, E101S/K102R)
# Construct: made in house; host or cells: E. coli Rosetta2(DE3)
# experiment-summary: fluorescence titration, XeIF4E1a mutant
# Format: binding
# condition-description: mutant (E101S/K102R) of XeIF4E1a
Reported Kas X4E1a2 by item:
Please give a number only; it is taken to be in µM⁻¹.

CN(C)c1nc2c(c(=O)[nH]1)[n+](C)cn2[C@@H]1O[C@H](COP(=O)(O)OP(=O)(O)OP(=O)(O)O)[C@@H](O)[C@H]1O | 0.306
Cn1c[n+]([C@@H]2O[C@H](COP(=O)(O)OP(=O)(O)OP(=O)(O)OP(=O)(O)O)[C@@H](O)[C@H]2O)c2nc(N)[nH]c(=O)c21 | 202.5

Then this compound:
Ask: State, in one line, measured Kas X4E1a2 of Cn1c[n+]([C@@H]2O[C@H](COP(=O)([O-])OP(=O)(O)OP(=O)(O)O)[C@@H](O)[C@H]2O)c2nc(N)[nH]c(=O)c21
Result: 32.76

====

Reported Ratio Kas (X4E1a) to Kas (X4E1bΔN27) by item:
# Test system: XeIF4E1bΔN27
# experiment-summary: time-synchronized fluorescence titration of cap analogue binding
# Parameters: species or system Xenopus laevis
# condition-description: 10% glycerol
# Description: The time-synchronized fluorescence titration method, widely used to determine the affinity constants of cap–eIF4E complexes [[20,22–26]], measures the quenching of the intrinsic fluorescence of tryptophan residues due to cap binding (Fig. S2). […] The final Kas was calculated as a weighted average of 2–6 independent titrations with the weights taken as the reciprocal of the numerical standard deviation squared. […]
Number only, please.

# annotated cases, reported Ratio Kas (X4E1a) to Kas (X4E1bΔN27) shown
Cn1c[n+]([C@@H]2O[C@H](COP(=O)(O)OP(=O)(O)OP(=O)(O)OC[C@H]3O[C@@H](n4cnc5c(N)ncnc54)[C@H](O)[C@@H]3O)[C@@H](O)[C@H]2O)c2nc(N)[nH]c(=O)c21 [m^7GpppA] | 1.99
CCn1c[n+]([C@@H]2O[C@H](COP(=O)(O)OP(=O)(O)OP(=O)(O)O)[C@@H](O)[C@H]2O)c2nc(N)[nH]c(=O)c21 [et^7GTP] | 2.20
Cn1c[n+]([C@@H]2O[C@H](COP(=O)(O)OP(=O)(O)OP(=O)(O)OP(=O)(O)O)[C@@H](O)[C@H]2O)c2nc(N)[nH]c(=O)c21 [m^7Gp4] | 3.51
Cn1c[n+]([C@@H]2O[C@H](COP(=O)(O)OP(=O)([O-])O)[C@@H](O)[C@H]2O)c2nc(N)[nH]c(=O)c21 [m^7GDP] | 2.45

Ask: State, in one line, measured Ratio Kas (X4E1a) to Kas (X4E1bΔN27) of CN(C)c1nc2c(c(=O)[nH]1)[n+](C)cn2[C@@H]1O[C@H](COP(=O)(O)OP(=O)(O)OP(=O)(O)O)[C@@H](O)[C@H]1O [m^2,2,7GTP]
Result: 0.70

====

# target-desc: X4E1a1’ (K102R) (Xenopus laevis, UniProt P48597, K102R)
# Construct: made in house; host or cells: E. coli Rosetta2(DE3)
# Sequence (P48597 whole entry K102R): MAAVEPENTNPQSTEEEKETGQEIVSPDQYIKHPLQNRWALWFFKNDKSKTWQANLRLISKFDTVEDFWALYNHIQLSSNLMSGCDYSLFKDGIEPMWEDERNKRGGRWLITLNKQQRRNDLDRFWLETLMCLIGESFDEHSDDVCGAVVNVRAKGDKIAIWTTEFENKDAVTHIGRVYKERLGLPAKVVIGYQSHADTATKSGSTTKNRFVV
# experiment-summary: fluorescence titration, XeIF4E1a mutant
# Format: binding
# condition-description: mutant (K102R) of XeIF4E1a
quantity-kind: Kas X4E1a1’ (µM⁻¹)
Please give a number only; it is taken to be in µM⁻¹.

# annotated cases, reported Kas X4E1a1’ shown
Cn1c[n+]([C@@H]2O[C@H](COP(=O)(O)OP(=O)(O)OP(=O)(O)OP(=O)(O)OP(=O)(O)O)[C@@H](O)[C@H]2O)c2nc(N)[nH]c(=O)c21 | 382
Cn1c[n+]([C@@H]2O[C@H](COP(=O)(O)OP(=O)([O-])O)[C@@H](O)[C@H]2O)c2nc(N)[nH]c(=O)c21 | 11.09

Ask: State, in one line, measured Kas X4E1a1’ of Cn1c[n+]([C@@H]2O[C@H](COP(=O)([O-])OP(=O)(O)OP(=O)(O)O)[C@@H](O)[C@H]2O)c2nc(N)[nH]c(=O)c21
Result: 34.3

Ask: State, in one line, measured Kas X4E1a1’ of Cn1c[n+]([C@@H]2O[C@H](COP(=O)(O)OP(=O)(O)OP(=O)(O)OP(=O)(O)O)[C@@H](O)[C@H]2O)c2nc(N)[nH]c(=O)c21
Result: 232.5

Ask: State, in one line, measured Kas X4E1a1’ of CN(C)c1nc2c(c(=O)[nH]1)[n+](C)cn2[C@@H]1O[C@H](COP(=O)(O)OP(=O)(O)OP(=O)(O)O)[C@@H](O)[C@H]1O
Result: 0.268

====

Reported Ratio Kas (h4E1a) to Kas (h4E1b) by item:
# System: heIF4E1b
# experiment-summary: time-synchronized fluorescence titration of cap analogue binding
# Parameters: species or system human
# condition-description: without glycerol
# Protocol: The time-synchronized fluorescence titration method, widely used to determine the affinity constants of cap–eIF4E complexes [[20,22–26]], measures the quenching of the intrinsic fluorescence of tryptophan residues due to cap binding (Fig. S2). […] The final Kas was calculated as a weighted average of 2–6 independent titrations with the weights taken as the reciprocal of the numerical standard deviation squared. […]
Number only, please.

# annotated cases, reported Ratio Kas (h4E1a) to Kas (h4E1b) shown
Cn1c[n+]([C@@H]2O[C@H](COP(=O)(O)OP(=O)(O)OP(=O)(O)OP(=O)(O)O)[C@@H](O)[C@H]2O)c2nc(N)[nH]c(=O)c21 | 4.68
CCn1c[n+]([C@@H]2O[C@H](COP(=O)(O)OP(=O)(O)OP(=O)(O)O)[C@@H](O)[C@H]2O)c2nc(N)[nH]c(=O)c21 | 1.78

Then this compound:
Ask: State, in one line, measured Ratio Kas (h4E1a) to Kas (h4E1b) of Cn1c[n+]([C@@H]2O[C@H](COP(=O)(O)OP(=O)(O)OP(=O)(O)OC[C@H]3O[C@@H](n4cnc5c(N)ncnc54)[C@H](O)[C@@H]3O)[C@@H](O)[C@H]2O)c2nc(N)[nH]c(=O)c21
Result: 1.84

====

# target-desc: X4E1a6 (E101S/K102R/S195A/M82S/T206L/T207S) (Xenopus laevis, UniProt P48597, E101S/K102R/M82S/S195A/T206L/T207S)
# Construct: made in house; host or cells: E. coli Rosetta2(DE3)
# Sequence (P48597 whole entry M82S/E101S/K102R/S195A/T206L/T207S): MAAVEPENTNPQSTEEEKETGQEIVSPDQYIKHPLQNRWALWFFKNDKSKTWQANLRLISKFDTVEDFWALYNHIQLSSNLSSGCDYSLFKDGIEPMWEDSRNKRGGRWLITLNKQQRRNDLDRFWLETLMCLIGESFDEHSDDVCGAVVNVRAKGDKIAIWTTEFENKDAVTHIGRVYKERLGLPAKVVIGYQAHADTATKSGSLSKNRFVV
# experiment-summary: fluorescence titration, XeIF4E1a mutant
# Assay type: binding
# condition-description: mutant (E101S/K102R/S195A/M82S/T206L/T207S) of XeIF4E1a
quantity-kind: Kas X4E1a6 (µM⁻¹)
Please give a number only; it is taken to be in µM⁻¹.

# annotated cases, reported Kas X4E1a6 shown
Nc1nc2c(c(=O)[nH]1)n(Cc1ccccc1)c[n+]2[C@@H]1O[C@H](COP(=O)(O)OP(=O)(O)O)[C@@H](O)[C@H]1O | 7.09
Cn1c[n+]([C@@H]2O[C@H](COP(=O)(O)OP(=O)(O)OP(=O)(O)OP(=O)(O)O)[C@@H](O)[C@H]2O)c2nc(N)[nH]c(=O)c21 | 143

Then this compound:
Ask: State, in one line, measured Kas X4E1a6 of Cn1c[n+]([C@@H]2O[C@H](COP(=O)(O)OP(=O)([O-])OP(=O)(O)OC[C@H]3O[C@@H](n4cnc5c(=O)[nH]c(N)nc54)[C@H](O)[C@@H]3O)[C@@H](O)[C@H]2O)c2nc(N)[nH]c(=O)c21
Result: 2.54
